Where these numbers come from: ChEMBL document CHEMBL1134529

# measured_on: UniProt:Q72874
reported_metric: IC50 (nM)

Cc1nc(CCC2(C(C)C)CC(=O)C(Sc3cc(C)c(CO)cc3C(C)(C)C)=C(O)O2)cs1 (configuration not stated) = 13

I. CC(=O)Nc1nc(CCC2(C(C)C)CC(=O)C(Sc3cc(C)c(CO)cc3C(C)(C)C)=C(O)O2)cs1 (configuration not stated)
II. Cc1cc(SC2=C(O)OC(CCc3ncsc3C)(C(C)C)CC2=O)c(C(C)(C)C)cc1CO (configuration not stated)
QUERY: Which of these two has the smaller recorded IC50: I or II ? Your answer should be the label attached to the chosen record.
RESULT: II

1. Cc1cc(SC2=C(O)OC(CCc3cncnc3)(C(C)C)CC2=O)c(C(C)(C)C)cc1CO (configuration not stated)
2. Cc1csc(CCC2(C(C)C)CC(=O)C(Sc3cc(C)c(CO)cc3C(C)(C)C)=C(O)O2)n1 (configuration not stated)
3. Cc1cc(SC2=C(O)OC(CCc3ccccn3)(C(C)C)CC2=O)c(C(C)(C)C)cc1CO (configuration not stated)
4. Cc1cc(SC2=C(O)OC(CCc3cc[nH]n3)(C(C)C)CC2=O)c(C(C)(C)C)cc1CO (configuration not stated)
QUERY: Order these by IC50, descending, and give the full ranking. Please write the labels in the order that was asked for.
RESULT: 1, 3, 2, 4
(1: 17 nM, 3: 1.2 nM, 2: 0.45 nM, 4: 0.28 nM)

I. Cc1cnc(CCC2(C(C)C)CC(=O)C(Sc3cc(C)c(CO)cc3C(C)(C)C)=C(O)O2)s1 (configuration not stated)
II. Cc1cc(SC2=C(O)OC(CCc3ccncc3)(C(C)C)CC2=O)c(C(C)(C)C)cc1CO (configuration not stated)
QUERY: Exercise: compare I and II ; which one has the greater IC50? Your answer should be the label attached to the chosen record.
RESULT: I

###

# run_description: Compound was evaluated for pharmacokinetic parameter, area under curve (AUC)
# Assay type: ADME
# Set-up: unit not given here
reported_metric: AUC

These solved cases illustrate the format of a correct answer.
Cc1cc(SC2=C(O)OC(CCc3nccs3)(C(C)C)CC2=O)c(C(C)(C)C)cc1CO (stereo not given) = 132
Cc1cc(SC2=C(O)OC(CCc3ccc(N)cc3)(C(C)C)CC2=O)c(C(C)(C)C)cc1CO (racemic) = 42
Cc1cc(SC2=C(O)OC(CCc3ccsc3)(C(C)C)CC2=O)c(C(C)(C)C)cc1CO (stereo not given) = 221

I. Cc1cc(SC2=C(O)OC(CCc3ccoc3)(C(C)C)CC2=O)c(C(C)(C)C)cc1CO (stereo not given)
II. Cc1cc(SC2=C(O)O[C@](CCc3ccc(N)cc3)(C(C)C)CC2=O)c(C(C)(C)C)cc1CO
QUERY: Which of these two has the smaller recorded AUC: I or II ? Your answer should be the label attached to the chosen record.
RESULT: II

###

# measured_on: Human immunodeficiency virus type 1 protease (Human immunodeficiency virus 1, UniProt Q72874)
pIC50: −log10 of the molar value.
reported_metric: pIC50

These solved cases illustrate the format of a correct answer.
Cc1cc(SC2=C(O)OC(CCc3csc(C(C)C)n3)(C(C)C)CC2=O)c(C(C)(C)C)cc1CO (centres undefined) = 8.80
Cc1cc(SC2=C(O)OC(CCc3ccc4[nH]ccc4c3)(C(C)C)CC2=O)c(C(C)(C)C)cc1CO (centres undefined) = 9.01

1. Cc1cc(SC2=C(O)OC(CCc3ccco3)(C(C)C)CC2=O)c(C(C)(C)C)cc1CO (centres undefined)
2. Cc1cc(SC2=C(O)OC(CCc3cccs3)(C(C)C)CC2=O)c(C(C)(C)C)cc1CO (centres undefined)
QUERY: Which of these two has the smaller recorded pIC50: 1 or 2 ? Your answer should be the label attached to the chosen record.
RESULT: 1

1. Cc1cc(SC2=C(O)OC(CCc3cscn3)(C(C)C)CC2=O)c(C(C)(C)C)cc1CO (centres undefined)
2. Cc1cc(SC2=C(O)OC(CCc3ccsc3)(C(C)C)CC2=O)c(C(C)(C)C)cc1CO (centres undefined)
QUERY: Which of these two has the smaller recorded pIC50: 1 or 2 ? Your answer should be the label attached to the chosen record.
RESULT: 1
(1: 8.89, 2: 9.77)
